Endpoint: IC50. System: PAK4 (Homo sapiens, UniProt O96013). Items follow.
Sequence (O96013 whole entry): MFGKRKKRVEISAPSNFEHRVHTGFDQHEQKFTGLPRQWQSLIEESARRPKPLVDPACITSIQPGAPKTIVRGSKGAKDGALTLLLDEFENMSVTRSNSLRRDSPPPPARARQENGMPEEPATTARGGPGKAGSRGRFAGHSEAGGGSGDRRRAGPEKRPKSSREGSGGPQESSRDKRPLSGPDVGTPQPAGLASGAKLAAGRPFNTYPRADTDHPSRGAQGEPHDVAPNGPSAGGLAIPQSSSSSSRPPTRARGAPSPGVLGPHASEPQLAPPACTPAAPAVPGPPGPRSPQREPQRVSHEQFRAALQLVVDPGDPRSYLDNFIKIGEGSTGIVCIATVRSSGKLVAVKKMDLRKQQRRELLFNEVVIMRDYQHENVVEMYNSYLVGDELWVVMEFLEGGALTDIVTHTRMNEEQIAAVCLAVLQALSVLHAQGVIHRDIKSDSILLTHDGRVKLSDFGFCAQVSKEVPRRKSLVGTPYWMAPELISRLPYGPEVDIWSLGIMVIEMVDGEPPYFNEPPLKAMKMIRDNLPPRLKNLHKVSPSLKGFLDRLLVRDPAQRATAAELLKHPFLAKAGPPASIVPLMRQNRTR
Answer shape: numeric part, then the unit.

Guide cases for IC50, answers given:
> print(dat)
                                   compound                        tested.target  reported
1  Cc1cnc(N2CCN(c3nc(Nc4cc(C5CC5)[nH]n4)c4cc(Cl)ccc4n3)CC2)nc1 [Compound 9b]  PAK4 (Homo sapiens, UniProt O96013)    110 nM
2  Cc1ccc(N2CCN(c3nc(Nc4cc(C5CC5)[nH]n4)c4cc(Cl)ccc4n3)CC2)nc1 [Compound 8c]  PAK4 (Homo sapiens, UniProt O96013)     87 nM
3  Clc1ccc(N2CCN(c3nc(Nc4cc(C5CC5)[nH]n4)c4cc(Cl)ccc4n3)CC2)cc1 [Compound 7e]  PAK4 (Homo sapiens, UniProt O96013)    160 nM

Consider the additional compound presented here.
Tested on PAK4 (Homo sapiens, UniProt O96013): Clc1ccc2nc(N3CCN(c4ncc(Br)cn4)CC3)nc(Nc3cc(C4CC4)[nH]n3)c2c1 [Compound 9c] . Observed IC50: 68 nM
